# Test system: Oryza sativa
# measurement_description: Paddy herbicidal activity test, chemical damage to transplanted rice
# Assay type: in vivo
# particulars: 1 g a.i./10a; rice transplanted in 2.0 leaf stage; 30 days
measured_quantity: chemical damage (growth inhibition rate level), Oryza sativa

1. CCC(=O)Nc1c(C#N)cnn1-c1nn2c(c1Cl)CCCC2 [Control Agent 4.187] : 1 (1: 10% to less than 20%)
2. N#Cc1cnn(-c2nn3c(c2Cl)CCCC3)c1NC(=O)CCCl [Control Agent 1.36] : 2 (2: 20% to less than 30%)
3. N#Cc1cnn(-c2nn3c(c2Cl)CCCC3)c1NC(=O)CCCCl [Control Agent 1.37] : 2 (2: 20% to less than 30%)
4. N#Cc1cnn(-c2nn3c(c2Cl)CCCC3)c1NC(=O)CCl [Control Agent 1.9] : 1 (1: 10% to less than 20%)

* * *

Readings of herbicidal efficacy (growth inhibition rate level), Chenopodium album for the listed molecules
# Test system: Chenopodium album
# measurement_description: Farming soil treatment test
# Type: in vivo
# particulars: 5 g a.i./10a; soil surface spray prior to weed growth; 30 days, 30° C.
measured_quantity: herbicidal efficacy (growth inhibition rate level), Chenopodium album

1. CCC(=O)Nc1c(C#N)cnn1-c1nn2c(c1Cl)CCCC2 [Control Agent 4.187] : 2 (2: 20% to less than 30%)
2. N#Cc1cnn(-c2nn3c(c2Cl)CCCC3)c1NC(=O)CCCCl [Control Agent 1.37] : 4 (4: 40% to less than 50%)
3. N#Cc1cnn(-c2nn3c(c2Cl)CCCC3)c1NC(=O)CCl [Control Agent 1.9] : 1 (1: 10% to less than 20%)
4. N#Cc1cnn(-c2nn3c(c2Cl)CCCC3)c1NC(=O)CCCl [Control Agent 1.36] : 4 (4: 40% to less than 50%)

* * *

# Tested on: Monochoria vaginalis
# measurement_description: Paddy herbicidal activity test
# Assay type: in vivo
# particulars: 5 g a.i./10a; irrigated pot, treated at 3.5 leaf stage of Echinochloa crus-galli; 30 days
measured_quantity: herbicidal efficacy (growth inhibition rate level), Monochoria vaginalis

1. CCC(=O)Nc1c(C#N)cnn1-c1nn2c(c1Cl)CCCC2 [Control Agent 4.187] : 3 (3: 30% to less than 40%)
2. N#Cc1cnn(-c2nn3c(c2Cl)CCCC3)c1NC(=O)CCCCl [Control Agent 1.37] : 4 (4: 40% to less than 50%)
3. N#Cc1cnn(-c2nn3c(c2Cl)CCCC3)c1NC(=O)CCl [Control Agent 1.9] : 2 (2: 20% to less than 30%)
4. N#Cc1cnn(-c2nn3c(c2Cl)CCCC3)c1NC(=O)CCCl [Control Agent 1.36] : 4 (4: 40% to less than 50%)
5. CC(=O)Nc1c([N+](=O)[O-])cnn1-c1nn2c(c1Cl)CCCC2 [Control Agent 2.17] : 2 (2: 20% to less than 30%)

* * *

# Tested on: Oryza sativa
# measurement_description: Paddy herbicidal activity test, chemical damage to transplanted rice
# Format: in vivo
# particulars: 5 g a.i./10a; rice transplanted in 2.0 leaf stage; 30 days
Collected chemical damage (growth inhibition rate level), Oryza sativa values appear next to each entry.
measured_quantity: chemical damage (growth inhibition rate level), Oryza sativa

1. CC(=O)Nc1c([N+](=O)[O-])cnn1-c1nn2c(c1Cl)CCCC2 [Control Agent 2.17] : 1 (1: 10% to less than 20%)
2. N#Cc1cnn(-c2nn3c(c2Cl)CCCC3)c1NC(=O)CCl [Control Agent 1.9] : 1 (1: 10% to less than 20%)
3. N#Cc1cnn(-c2nn3c(c2Cl)CCCC3)c1NC(=O)CCCl [Control Agent 1.36] : 3 (3: 30% to less than 40%)
4. CCC(=O)Nc1c(C#N)cnn1-c1nn2c(c1Cl)CCCC2 [Control Agent 4.187] : 2 (2: 20% to less than 30%)
5. N#Cc1cnn(-c2nn3c(c2Cl)CCCC3)c1NC(=O)CCCCl [Control Agent 1.37] : 2 (2: 20% to less than 30%)

* * *

# Tested on: Scirpus juncoides
# measurement_description: Paddy herbicidal activity test
# Assay type: in vivo
# particulars: 1 g a.i./10a; irrigated pot, treated at 3.5 leaf stage of Echinochloa crus-galli; 30 days
measured_quantity: herbicidal efficacy (growth inhibition rate level), Scirpus juncoides

1) N#Cc1cnn(-c2nn3c(c2Cl)CCCC3)c1NC(=O)CCCCl [Control Agent 1.37] : 1 (1: 10% to less than 20%)
2) N#Cc1cnn(-c2nn3c(c2Cl)CCCC3)c1NC(=O)CCCl [Control Agent 1.36] : 1 (1: 10% to less than 20%)

* * *

# Test system: Amaranthus retroflexus
# measurement_description: Weed foliar treatment test (Test 3)
# Format: in vivo
# particulars: 5 g a.i./10a; foliar spray at 1.0 to 2.0 leaf stage of Digitaria ciliaris; 3 weeks, 25° C.
# Excerpt: […]
measured_quantity: herbicidal efficacy (growth inhibition rate level), Amaranthus retroflexus

1) N#Cc1cnn(-c2nn3c(c2Cl)CCCC3)c1NC(=O)CCCCl [Control Agent 1.37] : 6 (6: 60% to less than 70%)
2) CC(=O)Nc1c([N+](=O)[O-])cnn1-c1nn2c(c1Cl)CCCC2 [Control Agent 2.17] : 6 (6: 60% to less than 70%)
3) N#Cc1cnn(-c2nn3c(c2Cl)CCCC3)c1NC(=O)CCl [Control Agent 1.9] : 6 (6: 60% to less than 70%)
4) N#Cc1cnn(-c2nn3c(c2Cl)CCCC3)c1NC(=O)CCCl [Control Agent 1.36] : 5 (5: 50% to less than 60%)
5) CCC(=O)Nc1c(C#N)cnn1-c1nn2c(c1Cl)CCCC2 [Control Agent 4.187] : 5 (5: 50% to less than 60%)

* * *

# Test system: Echinochloa crus-galli
# measurement_description: Paddy herbicidal activity test
# Assay type: in vivo
# particulars: 1 g a.i./10a; irrigated pot, treated at 3.5 leaf stage of Echinochloa crus-galli; 30 days
measured_quantity: herbicidal efficacy (growth inhibition rate level), Echinochloa crus-galli

1. CCC(=O)Nc1c(C#N)cnn1-c1nn2c(c1Cl)CCCC2 [Control Agent 4.187] : 2 (2: 20% to less than 30%)
2. CC(=O)Nc1c([N+](=O)[O-])cnn1-c1nn2c(c1Cl)CCCC2 [Control Agent 2.17] : 1 (1: 10% to less than 20%)
3. N#Cc1cnn(-c2nn3c(c2Cl)CCCC3)c1NC(=O)CCCCl [Control Agent 1.37] : 3 (3: 30% to less than 40%)
4. N#Cc1cnn(-c2nn3c(c2Cl)CCCC3)c1NC(=O)CCCl [Control Agent 1.36] : 2 (2: 20% to less than 30%)
5. N#Cc1cnn(-c2nn3c(c2Cl)CCCC3)c1NC(=O)CCl [Control Agent 1.9] : 2 (2: 20% to less than 30%)

* * *

# Test system: Monochoria vaginalis
# measurement_description: Paddy herbicidal activity test
# Type: in vivo
# particulars: 1 g a.i./10a; irrigated pot, treated at 3.5 leaf stage of Echinochloa crus-galli; 30 days
The reader will find reported herbicidal efficacy (growth inhibition rate level), Monochoria vaginalis values listed item by item below.
measured_quantity: herbicidal efficacy (growth inhibition rate level), Monochoria vaginalis

1) CC(=O)Nc1c([N+](=O)[O-])cnn1-c1nn2c(c1Cl)CCCC2 [Control Agent 2.17] : 1 (1: 10% to less than 20%)
2) N#Cc1cnn(-c2nn3c(c2Cl)CCCC3)c1NC(=O)CCl [Control Agent 1.9] : 2 (2: 20% to less than 30%)
3) CCC(=O)Nc1c(C#N)cnn1-c1nn2c(c1Cl)CCCC2 [Control Agent 4.187] : 3 (3: 30% to less than 40%)
4) N#Cc1cnn(-c2nn3c(c2Cl)CCCC3)c1NC(=O)CCCl [Control Agent 1.36] : 3 (3: 30% to less than 40%)
5) N#Cc1cnn(-c2nn3c(c2Cl)CCCC3)c1NC(=O)CCCCl [Control Agent 1.37] : 2 (2: 20% to less than 30%)

* * *

# System: Digitaria ciliaris
# measurement_description: Farming soil treatment test
# Type: in vivo
# particulars: 5 g a.i./10a; soil surface spray prior to weed growth; 30 days, 30° C.
Reported herbicidal efficacy (growth inhibition rate level), Digitaria ciliaris values are given for each entry in this list.
measured_quantity: herbicidal efficacy (growth inhibition rate level), Digitaria ciliaris

1. N#Cc1cnn(-c2nn3c(c2Cl)CCCC3)c1NC(=O)CCCl [Control Agent 1.36] : 3 (3: 30% to less than 40%)
2. N#Cc1cnn(-c2nn3c(c2Cl)CCCC3)c1NC(=O)CCCCl [Control Agent 1.37] : 3 (3: 30% to less than 40%)
3. CCC(=O)Nc1c(C#N)cnn1-c1nn2c(c1Cl)CCCC2 [Control Agent 4.187] : 2 (2: 20% to less than 30%)

* * *

Overview of recorded herbicidal efficacy (growth inhibition rate level), Chenopodium album for various molecules
# Tested on: Chenopodium album
# measurement_description: Farming soil treatment test
# Assay type: in vivo
# particulars: 10 g a.i./10a; soil surface spray prior to weed growth; 30 days, 30° C.
measured_quantity: herbicidal efficacy (growth inhibition rate level), Chenopodium album

1) N#Cc1cnn(-c2nn3c(c2Cl)CCCC3)c1NC(=O)CCCl [Control Agent 1.36] : 4 (4: 40% to less than 50%)
2) CC(=O)Nc1c([N+](=O)[O-])cnn1-c1nn2c(c1Cl)CCCC2 [Control Agent 2.17] : 1 (1: 10% to less than 20%)
3) N#Cc1cnn(-c2nn3c(c2Cl)CCCC3)c1NC(=O)CCl [Control Agent 1.9] : 2 (2: 20% to less than 30%)
4) N#Cc1cnn(-c2nn3c(c2Cl)CCCC3)c1NC(=O)CCCCl [Control Agent 1.37] : 5 (5: 50% to less than 60%)
5) CCC(=O)Nc1c(C#N)cnn1-c1nn2c(c1Cl)CCCC2 [Control Agent 4.187] : 3 (3: 30% to less than 40%)
